Target: UniProtKB Q13547
Sequence (Q13547 whole entry): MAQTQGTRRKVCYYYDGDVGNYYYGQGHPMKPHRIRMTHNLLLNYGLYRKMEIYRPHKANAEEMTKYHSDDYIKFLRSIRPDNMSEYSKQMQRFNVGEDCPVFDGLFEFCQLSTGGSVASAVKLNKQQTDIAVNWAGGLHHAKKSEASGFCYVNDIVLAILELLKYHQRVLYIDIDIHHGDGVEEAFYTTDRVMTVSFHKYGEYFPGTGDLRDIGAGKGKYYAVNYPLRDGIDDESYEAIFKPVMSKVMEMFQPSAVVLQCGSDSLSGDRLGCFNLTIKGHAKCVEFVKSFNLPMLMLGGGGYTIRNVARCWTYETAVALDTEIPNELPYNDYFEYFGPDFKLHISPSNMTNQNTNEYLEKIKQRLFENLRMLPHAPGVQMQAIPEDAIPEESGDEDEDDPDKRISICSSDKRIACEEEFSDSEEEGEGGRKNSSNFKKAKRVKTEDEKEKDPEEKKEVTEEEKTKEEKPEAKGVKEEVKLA
Assay: Test of HDAC activities, HDAC1 Fluorimetric Drug Discovery Assay Kit
Type: biochemical
Design: purchased Enzolifesciences BML-AK511
Conditions: samples at 100, 1000, 10000 nM; 37° C. 60 minutes; fluorescence Ex 390, Em 460; read-out: HDAC inhibitory activities, HDAC1
Entries whose IC50 is below 4 µM take satisfied; entries at or above 4 µM take not satisfied.

{"compound": "O=C(NO)c1ccc(CN(C(=O)N2CCC[C@@H]2CO)c2ccc(C(F)(F)F)cc2)cc1 [Compound 522]", "system": "UniProtKB Q13547", "assigned_label": "satisfied"}
{"compound": "O=C(NO)c1ccc(CN(C(=O)N2CCOCC2)c2cccc(-c3ccc4[nH]ccc4c3)c2)cc1 [Compound 263]", "system": "UniProtKB Q13547", "assigned_label": "satisfied"}
{"compound": "C[C@@H]1CN(C(=O)N(Cc2ccc(C(=O)NO)cc2)c2cccc(C(F)(F)F)c2)C[C@H](C)N1CC(F)(F)C(F)(F)F [Compound 803]", "system": "UniProtKB Q13547", "assigned_label": "not satisfied"}
{"compound": "O=C(NO)c1ccc(CN(C(=O)N2CC(F)(F)C2)c2ccc(C(F)(F)F)cc2)c(F)c1 [Compound 578]", "system": "UniProtKB Q13547", "assigned_label": "satisfied"}
{"compound": "O=C(NO)c1ccc(CN(C(=O)N2CCC(O)(c3ccccc3)CC2)c2ccc(C(F)(F)F)cc2)cc1 [Compound 486]", "system": "UniProtKB Q13547", "assigned_label": "satisfied"}
{"compound": "CC(=O)N1CCCN(C(=O)N(Cc2ccc(C(=O)NO)cc2)c2ccccn2)CC1 [Compound 450]", "system": "UniProtKB Q13547", "assigned_label": "not satisfied"}
{"compound": "O=C(NO)c1ccc(CN(C(=O)N2CCOCC2)c2ccc(F)cc2F)cc1 [Compound 413]", "system": "UniProtKB Q13547", "assigned_label": "satisfied"}
{"compound": "COc1ccccc1N1CCN(C(=O)N(Cc2ccc(C(=O)NO)cc2)c2ccccn2)CC1 [Compound 356]", "system": "UniProtKB Q13547", "assigned_label": "satisfied"}
{"compound": "O=C(NO)c1ccc(CN(C(=O)N2CCOCC2)c2cc(C(F)(F)F)ccc2Cl)cc1 [Compound 776]", "system": "UniProtKB Q13547", "assigned_label": "satisfied"}
{"compound": "O=C(NO)c1ccc(CN(C(=O)N2CCN(Cc3ccccc3)CC2)c2ccccn2)cc1 [Compound 355]", "system": "UniProtKB Q13547", "assigned_label": "satisfied"}
{"compound": "CC1CCN(C(=O)N(Cc2ccc(C(=O)NO)cc2)c2cccc(C(F)(F)F)c2)CC1 [Compound 459]", "system": "UniProtKB Q13547", "assigned_label": "not satisfied"}
{"compound": "O=C(NO)c1ccc(CN(C(=O)N2CCC(O)CC2)c2cccc(C3=CCOCC3)c2)c(F)c1 [Compound 514]", "system": "UniProtKB Q13547", "assigned_label": "satisfied"}
{"compound": "O=C(NO)c1ccc(CN(C(=O)N2CCN(C(=O)C3CC3)CC2)c2ccccn2)cc1 [Compound 451]", "system": "UniProtKB Q13547", "assigned_label": "not satisfied"}
{"compound": "CC(=O)N1CCN(C(=O)N(Cc2ccc(C(=O)NO)cc2)c2cccc(C(F)(F)F)c2)CC1 [Compound 494]", "system": "UniProtKB Q13547", "assigned_label": "satisfied"}
{"compound": "CC(C)(C)OC(=O)N1CC=C(c2cccc(N(Cc3ccc(C(=O)NO)cc3)C(=O)N3CCOCC3)c2)CC1 [Compound 405]", "system": "UniProtKB Q13547", "assigned_label": "satisfied"}
{"compound": "O=C(NO)c1ccc(CN(C(=O)N2CC[C@@H](F)C2)c2cccc(C(F)(F)F)c2)cc1 [Compound 495]", "system": "UniProtKB Q13547", "assigned_label": "satisfied"}
{"compound": "O=C(NO)c1ccc(CN(C(=O)N2CCN(c3ccccc3)CC2)c2cccc(C(F)(F)F)c2)cc1 [Compound 717]", "system": "UniProtKB Q13547", "assigned_label": "satisfied"}
{"compound": "CC(C)(F)CN1CCN(C(=O)N(Cc2ccc(C(=O)NO)cc2)c2cccc(CF)c2)CC1 [Compound 766]", "system": "UniProtKB Q13547", "assigned_label": "satisfied"}
{"compound": "O=C(NO)c1ccc(CN(C(=O)N2CCN(CCN3CCOCC3)CC2)c2ccc(C(F)(F)F)cc2)cc1 [Compound 543]", "system": "UniProtKB Q13547", "assigned_label": "satisfied"}
{"compound": "COc1ccccc1N1CCN(C(=O)N(Cc2ccc(C(=O)NO)cc2)c2ccc(C)cc2F)CC1 [Compound 454]", "system": "UniProtKB Q13547", "assigned_label": "satisfied"}
{"compound": "O=C(NO)c1ccc(CN(C(=O)N2CCOCC2)c2cccc(C(F)(F)F)n2)cc1 [Compound 778]", "system": "UniProtKB Q13547", "assigned_label": "not satisfied"}
{"compound": "O=C(NO)c1ccc(CN(C(=O)N2CCOCC2)c2ccc(C(F)(F)F)cc2)cc1 [Compound 385]", "system": "UniProtKB Q13547", "assigned_label": "satisfied"}
{"compound": "CC1CN(C(=O)N(Cc2ccc(C(=O)NO)cc2)c2cccc(C(F)(F)F)n2)CC(C)O1 (centres unmarked) [Compound 827]", "system": "UniProtKB Q13547", "assigned_label": "satisfied"}
{"compound": "O=C(NO)c1ccc(CN(C(=O)N2CCOCC2)c2cccc(F)c2)cc1 [Compound 530]", "system": "UniProtKB Q13547", "assigned_label": "satisfied"}
{"compound": "COc1ccc(C(F)(F)F)cc1N(Cc1ccc(C(=O)NO)cc1)C(=O)N1CCOCC1 [Compound 774]", "system": "UniProtKB Q13547", "assigned_label": "not satisfied"}
{"compound": "O=C(NO)c1ccc(CN(C(=O)N2CCCCC2)c2cccc(C(F)(F)F)n2)cc1 [Compound 828]", "system": "UniProtKB Q13547", "assigned_label": "not satisfied"}
{"compound": "Cc1ccc(N(Cc2ccc(C(=O)NO)cc2)C(=O)N2CC(C)OC(C)C2)c(F)c1 (centres unmarked) [Compound 440]", "system": "UniProtKB Q13547", "assigned_label": "satisfied"}
{"compound": "O=C(NO)c1ccc(CN(C(=O)N2CCC(O)(c3ccccc3)CC2)c2cccc(-c3ccc4c(c3)OCO4)c2)cc1 [Compound 465]", "system": "UniProtKB Q13547", "assigned_label": "satisfied"}
{"compound": "O=C(NO)c1ccc(CN(C(=O)N2CC[C@H](F)C2)c2cccc(C(F)(F)F)c2)cc1 [Compound 496]", "system": "UniProtKB Q13547", "assigned_label": "satisfied"}
{"compound": "O=C(NO)c1ccc(CN(C(=O)N2CCOCC2)c2cccc(CO)c2)cc1 [Compound 499]", "system": "UniProtKB Q13547", "assigned_label": "satisfied"}

###

Molecular target: HDAC 6 (Homo sapiens, UniProt Q9UBN7)
Sequence (Q9UBN7 whole entry): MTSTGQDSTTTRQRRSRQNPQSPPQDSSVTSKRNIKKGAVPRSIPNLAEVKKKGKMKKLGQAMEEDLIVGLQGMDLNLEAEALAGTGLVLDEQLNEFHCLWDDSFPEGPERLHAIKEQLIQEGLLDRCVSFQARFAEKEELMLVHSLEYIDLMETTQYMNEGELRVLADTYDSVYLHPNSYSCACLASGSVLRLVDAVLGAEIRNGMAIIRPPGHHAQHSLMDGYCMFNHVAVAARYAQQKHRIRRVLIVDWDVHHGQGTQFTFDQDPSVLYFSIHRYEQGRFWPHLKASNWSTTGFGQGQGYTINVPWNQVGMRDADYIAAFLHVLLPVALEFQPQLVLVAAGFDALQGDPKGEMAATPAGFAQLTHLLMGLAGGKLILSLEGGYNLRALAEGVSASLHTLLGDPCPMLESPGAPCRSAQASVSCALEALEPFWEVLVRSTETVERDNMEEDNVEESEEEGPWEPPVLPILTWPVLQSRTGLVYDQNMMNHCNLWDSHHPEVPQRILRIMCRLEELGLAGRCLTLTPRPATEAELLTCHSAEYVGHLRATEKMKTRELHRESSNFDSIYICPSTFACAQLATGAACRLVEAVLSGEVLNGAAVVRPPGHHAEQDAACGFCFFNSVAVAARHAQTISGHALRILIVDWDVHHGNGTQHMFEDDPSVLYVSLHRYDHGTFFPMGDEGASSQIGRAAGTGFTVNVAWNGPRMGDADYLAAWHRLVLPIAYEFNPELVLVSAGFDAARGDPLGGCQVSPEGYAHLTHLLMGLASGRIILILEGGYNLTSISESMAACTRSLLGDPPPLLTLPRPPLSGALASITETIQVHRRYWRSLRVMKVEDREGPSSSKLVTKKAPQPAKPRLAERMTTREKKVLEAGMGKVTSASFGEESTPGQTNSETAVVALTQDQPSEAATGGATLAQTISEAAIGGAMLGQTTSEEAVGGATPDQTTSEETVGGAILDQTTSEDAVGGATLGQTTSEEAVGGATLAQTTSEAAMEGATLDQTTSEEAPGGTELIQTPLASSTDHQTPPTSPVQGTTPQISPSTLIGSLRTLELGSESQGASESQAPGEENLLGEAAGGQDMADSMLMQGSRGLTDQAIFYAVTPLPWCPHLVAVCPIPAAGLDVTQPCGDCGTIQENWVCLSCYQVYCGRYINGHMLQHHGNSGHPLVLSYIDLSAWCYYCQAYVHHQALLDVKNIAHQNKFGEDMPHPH
Experiment: Test of HDAC activities, HDAC6 (fluorimetric)
Format: biochemical
Parameters: purchased Calbiochem 382180
Settings: samples at 0.1, 1, 10, 100, 1000 nM; 37° C. 60 minutes; fluorescence Ex 390, Em 460; read-out: HDAC inhibitory activities, HDAC6
Entries whose IC50 is below 5 nM take YES; entries at or above 5 nM take NO.

{"compound": "O=C(NO)c1ccc(CN(C(=O)N2CCOCC2)c2ccc(Cl)cn2)cc1", "assigned_label": "YES"}
{"compound": "CN1CCCN(C(=O)N(Cc2ccc(C(=O)NO)cc2)c2ccccn2)CC1", "assigned_label": "YES"}
{"compound": "O=C(NO)c1ccc(CN(C(=O)N2CC(F)(F)C2)c2ccc(C(F)(F)F)cc2)c(F)c1", "assigned_label": "NO"}
{"compound": "O=C(NO)c1ccc(CN(C(=O)N2CCN(CC(=O)N3CCOCC3)CC2)c2ccc(C(F)(F)F)cc2)cc1", "assigned_label": "NO"}
{"compound": "CC1CN(C(=O)N(Cc2ccc(C(=O)NO)cc2)c2cccc(C(F)(F)F)n2)CC(C)O1 (stereo not shown)", "assigned_label": "NO"}
{"compound": "COc1cccc(N(Cc2ccc(C(=O)NO)cc2)C(=O)N2CCOCC2)c1", "assigned_label": "YES"}
{"compound": "O=C(NO)c1ccc(CN(C(=O)N2CCOCC2)c2cccc(-c3ccc4cc[nH]c4c3)c2)cc1", "assigned_label": "YES"}
{"compound": "O=C(NO)c1ccc(CN(C(=O)N2CCC(O)CC2)c2cccc(Br)c2)c(F)c1", "assigned_label": "YES"}
{"compound": "O=C(NO)c1ccc(CN(C(=O)N2CCOCC2)c2ccc(Br)cc2)cc1", "assigned_label": "YES"}
{"compound": "Cn1ncc2cc(-c3cccc(N(Cc4ccc(C(=O)NO)cc4)C(=O)N4CCCCC4)c3)ccc21", "assigned_label": "NO"}
{"compound": "CS(=O)(=O)N1CC=C(c2cccc(N(Cc3ccc(C(=O)NO)cc3)C(=O)N3CCOCC3)c2)CC1", "assigned_label": "YES"}
{"compound": "O=C(NO)c1ccc(CN(C(=O)N2CCN(CC3(O)CCOCC3)CC2)c2cccc(C(F)(F)F)c2)cc1", "assigned_label": "YES"}
{"compound": "O=C(NO)c1ccc(CN(C(=O)N2CCN(C(=O)C3CC3)CC2)c2cccc(-c3ccc4c(c3)OCO4)c2)cc1", "assigned_label": "YES"}
